The measurements presented in this section are drawn from PubChem BioAssay (NCI).

Assay: NCI Yeast Anticancer Drug Screen. Data for the bub3 strain (AID 167)
Settings: S. cerevisiae bub3 mutant strain, at 100.0 µM, stronger effect = higher value
The panel holds about 79,000 compounds, 15% with a hit somewhere; the sample as a whole holds those more often. The source made the active and inactive calls. No stated cut-off is given here; in the data, active means growth inhibition above about 70%; inactive means the rest.
Consider the following compounds and their measured growth inhibition readings.

{"compound": "CCC(C)/C(C)=N/NC(N)=O (stereo unspecified)", "growth inhibition": "-10% (inactive)"}
{"compound": "Cc1c(N=Nc2ccc(Cl)cc2)c(C)n(C2OC(CO)C(O)C(O)C2O)c(=S)c1C#N (stereo unspecified)", "growth inhibition": "45% (inactive)"}
{"compound": "Cc1ccc(Cl)c2c(=O)c3ccccc3[nH]c12", "growth inhibition": "4% (inactive)"}
{"compound": "COc1ccc2cc(CN3CCC(C4CCN(Cc5ccc6cc(OC)ccc6c5)CC4)CC3)ccc2c1", "growth inhibition": "98% (active)"}
{"compound": "CCCCCC/C(C)=N/Nc1ccc([N+](=O)[O-])cc1[N+](=O)[O-]", "growth inhibition": "-12% (inactive)"}
{"compound": "CC1=Cc2ccc(C)cc2C(=O)C1=O", "growth inhibition": "99% (active)"}

###

Assay: NCI Yeast Anticancer Drug Screen. Data for the mlh1 strain (AID 171);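 further: 0% = growth of vehicle-treated control cultures of the same strain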
Details: S. cerevisiae mlh1 strain growth inhibition; at 100.0 µM
Description: Growth inhibition of yeast strains with defined genetic alterations is measured as a screen for potential anti-cancer activity. Selected strains with alterations in DNA damage repair or cell cycle control were exposed to compounds and growth inhibition was measured relative to vehicle treated controls. The strain used in this assay is mlh1
Compounds without any hit were thinned out: in the full panel of roughly 79,000, 15% have a hit. The source made the active and inactive calls. No stated cut-off is given here; in the data, active means growth inhibition above about 70%; inactive means the rest.
Classes used: Y = active, N = inactive

{"chem-smiles": "CCN(CC)c1ccc(N=Nc2cc(S(=O)(=O)O)ccc2O)c(O)c1", "answer-label": "N"}
{"chem-smiles": "Oc1ccc(Cc2nccc3cc(O)c(O)cc23)cc1O", "answer-label": "N"}
{"chem-smiles": "CN(Cc1cccc2ccccc12)Cc1cccc2ccccc12", "answer-label": "N"}
{"chem-smiles": "CCOc1nc(OCC)nc(-c2cccn2-c2ccccc2)n1", "answer-label": "Y"}

###

Consider the following compounds and their measured growth inhibition readings.
Assay: NCI Yeast Anticancer Drug Screen. Data for the mgt1 strain (AID 153)
Details: S. cerevisiae mgt1 mutant growth inhibition; at 3.7 µM; stronger effect = higher value
The panel holds about 79,000 compounds, 15% with a hit somewhere; the sample as a whole holds those more often.
experimental-readout: growth inhibition (%)

{"compound": "CN(C)CCNC(=O)c1cccc2nc3c(ccc4ccccc43)nc12", "numeric-value": -1}
{"compound": "NCC(O)CSCc1ccc(Cl)cc1 (stereo not drawn)", "numeric-value": -2}
{"compound": "COc1ccc(/C(=N/O)c2ccccc2C2=Nc3ccccc3C(NCc3ccccc3)O2)cc1C (stereo not drawn)", "numeric-value": -3}

###

Assay: NCI Yeast Anticancer Drug Screen. Data for the CLN2oe strain (AID 163);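 further: 0% = growth of vehicle-only control cultures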
Conditions: S. cerevisiae CLN2oe strain, at 1.2 µM, stronger effect = higher value
Compounds without any hit were thinned out: in the full panel of roughly 79,000, 15% have a hit.

{"chem-smiles": "CN(C)CCC(=O)c1c[nH]c2ccccc12", "units-of-measure": "%", "growth inhibition": -11}
{"chem-smiles": "O=c1[nH]c(=O)n(CCCO)cc1F", "units-of-measure": "%", "growth inhibition": 3}
{"chem-smiles": "Cc1cc(NCCCN(C)C)c2ccc3c(ccc4c(NCCCN(C)C)cc(C)nc43)c2n1", "units-of-measure": "%", "growth inhibition": -7}
{"chem-smiles": "O=S(=O)(O)CC[S][Sn]([S]CCS(=O)(=O)O)([c]1ccccc1)[c]1ccccc1", "units-of-measure": "%", "growth inhibition": 20}
{"chem-smiles": "CN(C)c1ccc(/C=C/c2ccnc3ccc4ccccc4c23)cc1", "units-of-measure": "%", "growth inhibition": -11}
{"chem-smiles": "Cc1ccc2nc(N/N=C/c3ccc(C)s3)cc(C)c2c1", "units-of-measure": "%", "growth inhibition": 5}
{"chem-smiles": "N=c1oc2ccccc2cc1-c1nc2ccccc2[nH]1", "units-of-measure": "%", "growth inhibition": 6}
{"chem-smiles": "CCCCCC/C(C)=N/Nc1ccc([N+](=O)[O-])cc1[N+](=O)[O-]", "units-of-measure": "%", "growth inhibition": -11}
{"chem-smiles": "Cc1nc2ccc(NCCN(C)C)c3c(=O)c4ccccc4n1c23", "units-of-measure": "%", "growth inhibition": 5}

###

Test: NCI Yeast Anticancer Drug Screen. Data for the rad50 strain (AID 155);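 further: 0% = growth of vehicle-only cultures of the same strain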
Settings: S. cerevisiae rad50 strain growth inhibition; at 50.0 µM (retest, dose inferred, filed as 5.0); stronger effect = higher value
This is part of a sample that, as a whole, favours compounds with a hit. Of some 79,000 tested, about 15% had one in any assay. Active and inactive are the calls of the source. Rule as the data show it: active = growth inhibition above about 70%; inactive = the rest.

{"compound": "CCC(C)/C(C)=N/NC(N)=O (stereo unspecified)", "growth inhibition": "30% (inactive)"}
{"compound": "Cc1ccc(N(C=O)c2c([N+](=O)[O-])cc([N+](=O)[O-])c3c2=[N+]([O-])CN=3)cc1", "growth inhibition": "83% (active)"}
{"compound": "O=C1c2ccccc2C2CCC1c1ccccc12 (stereo unspecified)", "growth inhibition": "-29% (inactive)"}
{"compound": "[O-]c1c2cc(-[n+]3c(-c4ccccc4)cc(-c4ccccc4)cc3-c3ccccc3)cc1COCCOCCOCCOCCOC2", "growth inhibition": "35% (inactive)"}
{"compound": "NNc1nnc(-c2ccccc2)nc1Cc1ccccc1", "growth inhibition": "-4% (inactive)"}
{"compound": "CN(C)CCn1c2ccccc2c2nc3cc4ccccc4cc3nc21", "growth inhibition": "95% (active)"}

###

Assay: NCI Yeast Anticancer Drug Screen. Data for the rad50 strain (AID 155);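 further: 0% = growth of vehicle-only cultures of the same strain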
Conditions: S. cerevisiae rad50 strain growth inhibition; at 3.7 µM; stronger effect = higher value
The panel holds about 79,000 compounds, 15% with a hit somewhere; the sample as a whole holds those more often.
Consider the following molecules and their measured growth inhibition readings.

{"molecule": "c1ccc2cc(OCC3CO3)c(OCC3CO3)cc2c1 (stereo unspecified)", "units-of-measure": "%", "growth inhibition": -21}
{"molecule": "CC[C@]1(O)C[C@H]2CN(CCc3c([nH]c4ccccc34)[C@@](C(=O)OC)(c3cc4c(cc3OC)N(C)[C@H]3[C@@](O)(C(=O)OC)[C@H](OC(C)=O)[C@]5(CC)C=CCN6CC[C@]43[C@@H]65)C2)C1", "units-of-measure": "%", "growth inhibition": -3}
{"molecule": "O=C(CSS(=O)(=O)O)c1ccccc1", "units-of-measure": "%", "growth inhibition": -1}
{"molecule": "O=CC(=C(I)I)c1ccccc1", "units-of-measure": "%", "growth inhibition": 95}
{"molecule": "O=S(=O)(Oc1c(Cl)cc(Cl)cc1Cl)c1ccccc1", "units-of-measure": "%", "growth inhibition": 3}
{"molecule": "O=C1C=CC(=O)N1c1ccc(Br)cc1Cl", "units-of-measure": "%", "growth inhibition": 101}
{"molecule": "COc1ccc2c(C)cc(N/N=C/c3sccc3C)nc2c1", "units-of-measure": "%", "growth inhibition": -25}
{"molecule": "COc1ccc(/C=C2\\S/C(=N/Nc3nc(-c4ccccc4)cs3)NC2=O)cc1OC", "units-of-measure": "%", "growth inhibition": 87}
{"molecule": "Cc1ccc(Nc2n[nH]c(=S)s2)cc1C", "units-of-measure": "%", "growth inhibition": 17}
{"molecule": "[N-]=[N+]=NC1CC(n2ccc(=O)[nH]c2=O)OC1COC(c1ccccc1)(c1ccccc1)c1ccccc1 (stereo unspecified)", "units-of-measure": "%", "growth inhibition": 3}
{"molecule": "O=C(Nn1c(-c2ccccc2)nc2ccccc2c1=O)c1ccc(Cl)cc1", "units-of-measure": "%", "growth inhibition": 9}
{"molecule": "CC1=Cc2ccc(C)cc2C(=O)C1=O", "units-of-measure": "%", "growth inhibition": 6}
{"molecule": "CNc1ccc2[nH]c3ccccc3c2c1", "units-of-measure": "%", "growth inhibition": -2}
{"molecule": "CCc1nc2ccc(N=Nc3c(O)ccc4ccccc34)cc2[nH]1", "units-of-measure": "%", "growth inhibition": 6}
{"molecule": "O=C1c2ccccc2C2CCC1c1ccccc12 (stereo unspecified)", "units-of-measure": "%", "growth inhibition": -5}
{"molecule": "NCC(O)CSCc1ccc(Cl)cc1 (stereo unspecified)", "units-of-measure": "%", "growth inhibition": 2}
{"molecule": "CC(O)CN1C(=O)c2cccc3cc([N+](=O)[O-])cc(c23)C1=O (stereo unspecified)", "units-of-measure": "%", "growth inhibition": 27}
{"molecule": "COc1cc(NCCCCCNC(C)C)c2ncccc2c1Cl", "units-of-measure": "%", "growth inhibition": 2}
{"molecule": "CC(C)(C(=O)NN)c1ccccc1", "units-of-measure": "%", "growth inhibition": 5}
{"molecule": "CN(C)CCn1c2ccccc2c2nc3cc4ccccc4cc3nc21", "units-of-measure": "%", "growth inhibition": 34}
{"molecule": "COc1ccc2nc(N/N=C/c3sccc3C)cc(C)c2c1", "units-of-measure": "%", "growth inhibition": -27}
{"molecule": "Nc1ccc2cc(Br)c3ccccc3c2c1", "units-of-measure": "%", "growth inhibition": 1}
{"molecule": "CCCCCCC(CCl)c1sc(-c2csc(CCNC(=O)OC(C)(C)C)n2)nc1C(=O)OC (stereo unspecified)", "units-of-measure": "%", "growth inhibition": 1}
{"molecule": "CN(C)CCNC(=O)c1cccc2nc3c4ccccc4c4ccccc4c3nc12", "units-of-measure": "%", "growth inhibition": -24}
{"molecule": "Cc1cc(NC(=S)SCc2ccc(Cl)cc2)ccc1Cl", "units-of-measure": "%", "growth inhibition": 10}
{"molecule": "CCCCCC(=O)C(C)(c1nc2n(c1O)/C(=N/C(=O)Nc1ccc(Cl)cc1)N=N2)c1nc2n(c1O)/C(=N/C(=O)Nc1ccc(Cl)cc1)N=N2", "units-of-measure": "%", "growth inhibition": 0}
